- Test system: RXF 393 renal
- measurementDescription: NCI-60 one-dose screen, 48 h (100 = growth as untreated, 0 = no growth, -100 = all killed)
- setupConditions: 10 µM unless noted
This is part of a sample that, as a whole, favours compounds with a hit. Of some 83,000 tested, about 20% had one in any assay. Active and inactive are the calls of the source. How the source made its calls: active means growth percent below 10; inactive means the rest.
Each entry below lists one item and its recorded growth value.

| compound | growth |
| --- | --- |
| CN1CCN(c2ccc3nc(-c4ccc5nc(-c6ccc(C(F)(F)F)cc6)[nH]c5c4)[nH]c3c2)CC1 | -14.3% (active) |

May I ask what growth has been recorded for `Clc1ccc(Nc2nc(Nc3ccccc3)nc(Nc3ccc(-c4cc(-c5ccc(Cl)cc5)on4)cc3)n2)cc1` ?
74.6% (inactive)

Another: `C=CC(=O)N1CC2(CC(n3nc(-c4ccc(Oc5ccccc5)cc4)c4c(N)ncnc43)C2)C1`
-19.4% (active)

Would you mind doing O=C1c2ccccc2-c2cn(Cc3ccccc3)c3cccc(c23)C1c1cccnc1 (centres undefined) as well?
57.9% (inactive)

Try `COc1ccc(S(=O)(=O)c2ccc(C(N)=O)cc2)cc1NC(=O)c1[nH]c(C)c2c1CCCCC2=O` next.
68.6% (inactive)

What do you get for `Cc1ccc(-c2c3c(N)c4c(nc3nc3c2c(C)nn3-c2ccccc2)CCCC4)cc1` ?
97% (inactive)

Follow-up item: `O=C(CCc1nnc2sc(/C=C\c3ccccc3)nn12)c1nc2ccccc2[nH]1`
108% (inactive)

Could you do the same for `Nc1cc(Br)c(-c2nnc(CCC(=O)c3nc4ccccc4[nH]3)o2)c(Br)c1` , please?
92.6% (inactive)

`Cc1ccc(NS(=O)(=O)c2ccc(-c3cnc(C4CC4)o3)cc2)cc1` ?
26.5% (inactive)

One more compound: `CCN1CCN(C(=S)SCC(=O)Nc2nc3ccc(OC)cc3s2)CC1`
92.5% (inactive)

Ok, now CCCCc1ccc(C(O)(CCN2CC3CCC(CC3)C2)c2ccccc2)cc1 (centres undefined)
96.2% (inactive)

Now give it for `Nc1nc(N)c(N=Nc2c(Br)cc(S(N)(=O)=O)cc2Br)c(N)n1` too.
107% (inactive)

`Clc1ccc2c(c1)C[C@H]1C[C@@H](c3cccs3)N2O1` ?
131% (inactive)

And `COc1ccc(/C=C2\CN(Cc3cn(CCCNc4ccnc5cc(Cl)ccc45)nn3)C/C(=C\c3ccc(OC)c(OC)c3)C2=O)cc1OC` ?
-95.1% (active)

----------
- Test system: OVCAR-8 ovarian
- measurementDescription: NCI-60 one-dose screen, 48 h (100 = growth as untreated, 0 = no growth, -100 = all killed)
- setupConditions: 10 µM unless noted
About 83,000 compounds went through this panel and 20% of them were active in at least one assay; those are over-represented in the sample as a whole.
quantityMeasured: growth (%)
Numeric only. Scale: %

| compound | assayedSystem | measureUnit | growth |
| --- | --- | --- | --- |
| COc1cc(C2C3=C(COC3=O)N(CCO)c3cc4c(cc32)OCO4)cc(OC)c1O (stereo not given) | OVCAR-8 ovarian | % | 42.8 |

Look up growth with OVCAR-8 ovarian for this compound: `Cn1c2ccc(Cl)cc2c2nn(C(=O)c3ccccc3)c(=O)nc21`
101

Next entry: `Fc1ccccc1Nc1ccc2nnc(-c3ccncc3)n2n1`
103

Now consider `COC(=O)c1c2c(c(C)[n+]([O-])c1C)C(=O)C=C(NCc1ccc(Cl)cc1)C2=O` .
2.34

`COc1ccc(Nc2[nH]n(C3=Nc4ccccc4Sc4ccccc43)c(=O)c2C#N)cc1` , same question.
40.2

Could you do the same for `Cc1ccc(S(=O)(=O)c2ccc3[nH]c(=O)[nH]c(=O)c3c2)cc1` , please?
95.2

Next compound up: `COc1nc2c(cc1S(=O)(=O)c1ccccc1)CCc1c-2cnn1-c1ccccc1Cl`
59.8

Lookup `Cc1ccc(S(=O)(=O)N(c2ccc(Cl)cc2)c2ccc(Br)cc2C(=O)O)cc1`
101

And the next one, `COc1cc(C(=O)N(C(C)C)C2CCCCC2)cc(OC)c1OC` ?
90.3

Proceed to `Cc1nc(NC(=O)COc2cccc(/C=C3\COc4ccccc4C3=O)c2)sc1C`
7.04

----------
- System: SNB-75 CNS
- measurementDescription: NCI-60 one-dose screen, 48 h (100 = growth as untreated, 0 = no growth, -100 = all killed)
- setupConditions: 10 µM unless noted
About 83,000 compounds went through this panel and 20% of them were active in at least one assay; those are over-represented in the sample as a whole.
quantityMeasured: growth (%)
# unit: % | format: bare number

# lookup: growth of `CCOC(=O)n1cc(C2=C(c3cn(C)c4ccccc34)COC2=O)c2ccccc21`
26.4

----------
// reported growth for each item listed
- System: SK-MEL-5 melanoma
- measurementDescription: NCI-60 one-dose screen, 48 h (100 = growth as untreated, 0 = no growth, -100 = all killed)
- setupConditions: 10 µM unless noted
About 83,000 compounds went through this panel and 20% of them were active in at least one assay; those are over-represented in the sample as a whole.
Number only, in %; omit the unit.

| molecule | quantityMeasured | numericValue |
| --- | --- | --- |
| COc1cc(/C=N/NC(=O)c2cnn3c2NC(c2ccccc2)C3)ccc1OC1CCCC1 (configuration not stated) | growth | 25.6 |
| CCC(C)[C@H]1O[C@]2(CC[C@@H]1C)C[C@@H]1C[C@@H](C/C=C(\C)[C@@H](OC3C[C@H](OC)C(O[C@H]4C[C@H](OC)[C@@H](O)[C@H](C)O4)[C@H](C)O3)[C@@H](C)/C=C/C=C3\CO[C@@H]4[C@H](O)C(C)=C[C@@H](C(=O)O1)[C@]34O)O2 (some centres not stated) | growth | -85.4 |
| C=C[C@H]1C[C@@H]2C[C@@H]3[C@H]4C/C=C\C(=O)NCCCC5NC(=O)C(=C(O)/C=C/[C@@H]4CC(=O)[C@H]3[C@@H]2[C@H]1C)C5=O (some centres not stated) | growth | -95.3 |

Proceeding to the next molecule to report its growth.
Name the recorded growth for `CCCCC(CCCC)(S(=O)(=O)CC)S(=O)(=O)CC` .
98

----------
- System: HOP-62 NSCLC
- measurementDescription: NCI-60 one-dose screen, 48 h (100 = growth as untreated, 0 = no growth, -100 = all killed)
- setupConditions: 10 µM unless noted
- Protocol: Growth inhibition of the HOP-62 human Non-Small Cell Lung tumor cell line is measured as a screen for anti-cancer activity. Cells are grown in 96 well plates and exposed to the test compound for 48 hours. Compounds are tested at a single concentration, which is 10^-5 M for most compounds. The reported endpoint is percent growth (GI% or GIPRCNT), where numbers from 0 - 100% represent growth inhibition, and numbers from -100% - 0 represent cell death. […]
The panel holds about 83,000 compounds, 20% with a hit somewhere; the sample as a whole holds those more often.
Decision: growth beneath 80% gives label 1; growth meeting or exceeding 80% gives label 0.

Sample answers from the record:
| compound | categoryLabel |
| --- | --- |
| O=C1Nc2ccc(Cl)cc2/C1=N/N=C(c1ccccc1)c1ccccc1 | label 0 |
| COCCOC1=C(Cl)C(=O)c2ccccc2C1=O | label 1 |
| COc1cccc(C2C3=C(COC3=O)N(CCO)c3cc4c(cc32)CCC4)c1 (stereo not given) | label 1 |
| CC(C)(C)[Si](C)(C)OC1[C@@H](CNC(=O)NC(=O)CCl)O[C@@H](n2cnc3c(N)ncnc32)[C@H]1O[Si](C)(C)C(C)(C)C (stereo not given in full) | label 1 |
| CCCCC(O)Cn1ncc(C(=O)OCC)c1NC(=O)NCc1ccccc1C(F)(F)F (stereo not given) | label 0 |
| Oc1ccc(Cl)cc1CNc1nc2ccccc2[nH]1 | label 0 |
| O=C1c2ccccc2-c2nnc(-c3ccc(Br)cc3)cc21 | label 1 |
| COC(=O)c1c2c(c(C)[n+]([O-])c1C)C(=O)C=C(NCc1cccc(Cl)c1)C2=O | label 1 |

Here's an entry: `Oc1ccccc1/C=N/Nc1nc2ccccc2s1` . Is its growth below 80%?
label 1

----------
- System: SF-539 CNS
- measurementDescription: NCI-60 one-dose screen, 48 h
- setupConditions: 10 µM unless noted
This is part of a sample that, as a whole, favours compounds with a hit. Of some 83,000 tested, about 20% had one in any assay. Activity calls are given as the source filed them. Rule for the calls: active = growth percent below 10; inactive = the rest.
Your reply should match one of these outcome classes. 1.0 for active, 0.0 for inactive

| compound | categoryLabel |
| --- | --- |
| COc1cc(/C=C/C(=O)C(=Cc2ccc(F)c(F)c2)C(=O)/C=C/c2ccc(O)c(OC)c2)ccc1O | 0.0 |
| COc1ccc(C2OCC(C)(C)CO2)cc1OC | 0.0 |
| CCN1C(=O)C2(Nc3ccccc3S2)c2cc(C)ccc21 (configuration not stated) | 0.0 |
| O=C(Nc1ccccc1)Oc1cccc2cccnc12 | 0.0 |
| Clc1ccc(C2=Nc3cccc4cccc(c34)N2)cc1Cl | 0.0 |

Called result for `CCN1CCN(C(=S)SCC(=O)Nc2nc3ccc(OC)cc3s2)CC1`
0.0

Repeat with CCOC(=O)c1cnn(CC(O)c2ccc(F)cc2)c1NC(=O)Nc1ccccc1F (configuration not stated)
0.0

Entry to check: `COc1cc(NC(=O)COc2ccccc2)c(C(N)=O)cc1OC`
1.0

Next compound: O=C(N/N=C/c1ccc(OC(F)F)c(OC2CCCC2)c1)c1cnn2c1NC(c1ccccc1)C2 (configuration not stated)
0.0

Note, next up: `Cc1ccc(-c2c3c(N)c4c(nc3nc3c2c(C)nn3-c2ccccc2)CCCC4)cc1`
0.0

// query: `c1ccc(-c2n(Cc3ccc4ccccc4c3)c3ccccc3[n+]2Cc2ccc3ccccc3c2)cc1`
1.0

Note, next up: `Cc1ccc(S(=O)(=O)N(c2ccc(Cl)cc2)c2ccc(Br)cc2C(=O)O)cc1`
0.0

Ok, now `CCOC(=O)c1c(Cl)c2c(n1Cc1ccc(OC)cc1)-c1oncc1CCC2`
0.0
